Tested on: Trypanosoma cruzi
Protocol summary: Trypanosoma cruzi phosphomannomutase and mannose-1-phosphate guanylyltransferase assay
Type: functional
Parameters: scale not given: direction of the effect not stated beside the values
Condition label: 10 µM
For each of the compounds below, state its Percent Effect.
Provide the reading as a plain figure in %.

Qu. Tell me measured Percent Effect for CCN(Cc1nc2c(cnn2C)c(=O)[nH]1)c1cccc(Cl)c1 please.
Ans. 1.27

Qu. Identify measured Percent Effect associated with Cc1ccc(N2CCCC(NCc3nc(C)c(C)o3)C2)nn1 (centres undefined)
Ans. 9.54

Qu. Quote Percent Effect reported for O=C(c1cnccn1)N1CCN(Cc2ccncc2)c2ncccc2C1 please.
Ans. -1.54

Qu. Supply recorded Percent Effect for CC(C)c1nnc2n1CCN(C(=O)CN1Cc3ccccc3C1=O)C2 here.
Ans. 6.2

Qu. Specify measured Percent Effect for CS(=O)(=O)N1CCC2(CN(C(=O)c3cccnc3)C2)C1 .
Ans. -2.18

Qu. // fetch Percent Effect given entry OC1(Cn2ccc3ncccc32)CCN(Cc2ccccn2)CC1
Ans. -10.3

Qu. For the compound N#CCSCCCN1CCCN(C(=O)c2ccccc2)CC1 , give its reported Percent Effect.
Ans. -4.17

Qu. Look up and state reported Percent Effect for O=C(NC1CC1)c1cc(NC(=O)N2CCCC(O)C2)ccc1Cl (centres undefined)
Ans. -5.36

Qu. For CCS(=O)(=O)N1CCC2(CCCN(Cc3cc(OC)ccc3F)C2)C1 (centres undefined) , write its Percent Effect.
Ans. -2.23

Qu. Determine its reported Percent Effect: Cc1nc(Nc2nccs2)cc(C2CCCN2C2CCOCC2)n1 (centres undefined)
Ans. 4.35

Qu. Specify Percent Effect for CC(C)N(C)C(=O)C1=NOC2(CCN(C(=O)c3ccc(Cl)cc3)C2)C1 (centres undefined) and stop.
Ans. -7.54

Qu. Please supply the value of reported Percent Effect for the item Cc1cc(CC(=O)N(CC2CN(C)CCO2)c2nccs2)no1 (centres undefined)
Ans. 6.41

Qu. Report Percent Effect, nothing else, for this compound: CCc1ccc(CN2CCCC(CO)(CCOC)C2)cc1 (centres undefined)
Ans. -4.79

Qu. Provide Percent Effect value for the following compound: Cc1cnc(N2CCC3(CCCN(c4ccc(C)nn4)C3)C2)nc1 (centres undefined)
Ans. -6.35

Qu. Consider the compound Cc1[nH]ccc1C(=O)Nc1cccc(CN2CCC(CO)CC2)c1 . State its measured Percent Effect.
Ans. 0.876

Qu. Determine its reported Percent Effect: NS(=O)(=O)CCNC(=O)c1nnn(-c2ccc(F)cc2)c1C1CC1
Ans. 3.91

Qu. Given CCN(CC)C(=O)CCNC(=O)N1CCC(c2ccccc2)C1 (centres undefined) , respond with its Percent Effect.
Ans. 0.772

Qu. Identify measured Percent Effect corresponding to c1ccc(CCN2CCOC(Cn3cccn3)C2)nc1 (centres undefined)
Ans. 7.54

Qu. Name the recorded Percent Effect of the compound listed here: c1cnn(CC2CN(c3ncnc4sccc34)CCO2)c1 (centres undefined)
Ans. 1.37

Qu. Provide one value: measured Percent Effect of CN(CCO)Cc1nnc(C2CCN(C3CCCCC3)CC2)n1C
Ans. -3.41

Qu. Look up Percent Effect of COCCNC(=O)C(C)n1cc(Br)cn1 (centres undefined) and report it.
Ans. 0.492

Qu. Please indicate Percent Effect recorded for COc1cccc(CN(C)C(=O)CSc2ccc3c(c2)OCCO3)c1
Ans. -0.876

Qu. Using known records, supply Percent Effect for CCc1nc2n(n1)CC(NCC(=O)Nc1nccs1)CC2 (centres undefined)
Ans. -5.95

Qu. Please give measured Percent Effect of the following entry: O=S(=O)(Cc1ccccc1F)NCCN1CCOCC1
Ans. -3.02

====

Assayed target: Tyrosyl-tRNA synthetase, putative (Trypanosoma cruzi (strain CL Brener)) (UniProt Q4DSP6)
Sequence (Q4DSP6 as listed by the source): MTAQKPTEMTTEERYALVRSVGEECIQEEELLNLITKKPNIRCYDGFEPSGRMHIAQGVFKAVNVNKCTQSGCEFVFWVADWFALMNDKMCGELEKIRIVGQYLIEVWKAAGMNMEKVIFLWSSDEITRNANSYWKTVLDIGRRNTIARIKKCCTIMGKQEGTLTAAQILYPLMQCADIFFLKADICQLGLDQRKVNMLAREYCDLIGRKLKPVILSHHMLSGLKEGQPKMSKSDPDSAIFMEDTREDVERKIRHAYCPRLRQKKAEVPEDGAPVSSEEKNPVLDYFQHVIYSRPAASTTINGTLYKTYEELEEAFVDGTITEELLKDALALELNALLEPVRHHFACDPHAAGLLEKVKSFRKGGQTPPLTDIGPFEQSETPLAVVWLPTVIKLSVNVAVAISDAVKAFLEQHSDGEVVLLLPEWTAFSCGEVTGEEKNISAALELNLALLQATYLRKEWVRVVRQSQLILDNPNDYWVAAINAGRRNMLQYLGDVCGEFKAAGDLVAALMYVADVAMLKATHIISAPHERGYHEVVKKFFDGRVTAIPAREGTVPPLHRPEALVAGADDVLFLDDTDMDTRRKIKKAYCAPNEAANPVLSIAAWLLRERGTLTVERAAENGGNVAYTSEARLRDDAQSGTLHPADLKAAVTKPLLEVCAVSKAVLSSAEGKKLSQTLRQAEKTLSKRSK
Protocol summary: Trypanosoma cruzi tyrosyl tRNA synthetase (TcYRS) SOP
Format: functional
Parameters: scale not given: direction of the effect not stated beside the values
Condition label: 30 µM
Tag: true if measured Percent Effect is not below 10%, false if it is.

Qu. Check this molecule for Percent Effect at or above 10%: c1ccc(-c2cnc(CN3CCn4c(nnc4C4CC4)C3)o2)cc1
Ans. true

Qu. For this molecule, is measured Percent Effect 10% or higher? CCN(CC)C(=O)Nc1cc2c(cc1SC)OCCO2
Ans. false

Qu. Does the reported Percent Effect for CN(CC(=O)NC1(C#N)CCCC1)C1CCCN(c2cccnn2)C1 (stereo not drawn) fall at or above the 10% mark?
Ans. true

Qu. Could you tell me if the measured Percent Effect of COCCNC(=O)NCc1ccc(OC(C)C)c(F)c1 reaches 10% or more?
Ans. true

Qu. In plain terms: is recorded Percent Effect at least 10% for Cc1nonc1C(=O)N1CCCC(c2ncncc2-c2ccncc2)C1 (stereo not drawn) ?
Ans. false

Qu. Hi, just wondering whether CC1(C)CC(N2Cc3nc(N4CCOCC4)ncc3C2=O)CC(C)(C)N1 shows Percent Effect of 10% or higher.
Ans. false

Qu. Please tell me: is the molecule COc1ccc(-c2nnc(SCC(=O)NCC(C)C)[nH]2)c(OC)c1 at or over 10% in terms of Percent Effect?
Ans. true

Qu. Answer whether Percent Effect of COc1ccc(-n2cnnc2SCC(C)(C)O)cn1 is greater than or equal to 10%.
Ans. false

Qu. Please check the record CNc1nc2c(s1)C(c1c(Cl)cccc1Cl)CC(=O)N2 (stereo not drawn) and state if its Percent Effect is at or above 10%.
Ans. false

Qu. Check the entry CC(C)N(C)Cc1nnc2n1CCN(Cc1ccncc1)CC2 : does Percent Effect equal or exceed 10%?
Ans. false

Qu. For this molecule, is measured Percent Effect 10% or higher? CC(C)Oc1ccccc1CNC(=O)N1CCC(n2cncn2)CC1
Ans. true

Qu. Threshold query (Percent Effect >= 10%) on CCS(=O)(=O)N(C)c1ccc(C(=O)N2CCCC(C)C2)cc1 (stereo not drawn)
Ans. false

Qu. For this molecule, is measured Percent Effect 10% or higher? CS(=O)(=O)CC(=O)N1C[C@H]2CCC[C@@]2(COCc2ccccn2)C1
Ans. true

Qu. Determine whether measured Percent Effect meets or exceeds 10% for CC(=O)N(Cc1noc(C2CC2)n1)C1CCN(Cc2cccnc2)C1 (stereo not drawn)
Ans. true

Qu. Check this molecule for Percent Effect at or above 10%: Cc1cccc(-c2ccc(C(=O)NCC3CCOC3)c(=O)[nH]2)c1 (stereo not drawn)
Ans. true

Qu. API: above_or_equal(metric=Percent Effect, cutoff=10%) for item Cc1cc(C)n(C2CN(CC(=O)N3CCOCC3)C2)n1
Ans. false

Qu. Does the reported Percent Effect for COCCN1CCC(CNC(=O)C2(c3cc(C)cc(C)c3)CCC2)C1 (stereo not drawn) fall at or above the 10% mark?
Ans. false

====

Assayed target: Sialic acid-binding Ig-like lectin 9 (Homo sapiens) (UniProt Q9Y336)
Sequence (Q9Y336 whole entry): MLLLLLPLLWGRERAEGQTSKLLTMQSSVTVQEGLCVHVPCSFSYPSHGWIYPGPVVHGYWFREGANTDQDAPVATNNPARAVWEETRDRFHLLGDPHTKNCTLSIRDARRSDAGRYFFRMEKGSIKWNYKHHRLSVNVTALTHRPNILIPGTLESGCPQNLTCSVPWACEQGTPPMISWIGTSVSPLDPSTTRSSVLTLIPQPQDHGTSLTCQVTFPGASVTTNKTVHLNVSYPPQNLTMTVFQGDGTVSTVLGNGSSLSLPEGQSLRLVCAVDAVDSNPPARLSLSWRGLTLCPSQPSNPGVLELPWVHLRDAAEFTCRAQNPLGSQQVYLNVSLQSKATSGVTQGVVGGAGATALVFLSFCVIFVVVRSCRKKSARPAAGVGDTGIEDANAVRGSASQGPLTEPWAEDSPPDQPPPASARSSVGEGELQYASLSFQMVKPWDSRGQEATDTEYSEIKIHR
Protocol summary: Hs-Siglec9 ALPHAscreen SOP 20170721
Set-up: scale not given: direction of the effect not stated beside the values
Condition label: 10 µM
Measurement type: Percent Effect (%)
The reply should contain only the number, in %.

Qu. // Input: O=C(NCc1cnc2n1CCN(c1ncc(F)cn1)CC2)C1CCC1 . Output its Percent Effect only.
Ans. 23.6

Qu. Specify reported Percent Effect for the compound shown: CCCNCC1(O)CCCN(Cc2cccc(C)c2)C1=O (stereo unspecified)
Ans. -2.93

Qu. Supply reported Percent Effect belonging to this compound: NC(=O)NCCC(=O)NCc1cccnc1N1CCc2ccccc2C1
Ans. 12.4

Qu. Indicate the recorded Percent Effect value for this compound: CN(Cc1ccncc1)C(=O)Nc1cnn(CC2CCCO2)c1 (stereo unspecified)
Ans. -2.66

Qu. Look up and state reported Percent Effect for Cc1nccn1CCC1CCCCN1Cc1ccncc1 (stereo unspecified)
Ans. -0.0054

Qu. Using the record for CC(NC(=O)C1=NN(C)C(=O)CC1)c1ccc(Cl)cc1Cl (stereo unspecified) , state its measured Percent Effect.
Ans. 9.9

Qu. Supply measured Percent Effect of CN(C)c1ncnc2c1CCN(CC1CCOC1)CC2 (stereo unspecified) in your reply.
Ans. -0.235

Qu. Quickly give me recorded Percent Effect for CC1CCN(CCNC(=O)C2CCN(S(N)(=O)=O)CC2)CC1
Ans. -4.04

Qu. # return recorded Percent Effect for input CCCn1nc(C)c(CNC(=O)C2COc3c(cccc3OC)C2)c1C (stereo unspecified)
Ans. 6.74

Qu. Check the records and state Percent Effect for Cc1ccc(CC(=O)NC(C)C(=O)N2CCS(=O)(=O)CC2)cc1 (stereo unspecified)
Ans. 4.88

Qu. In one line, give reported Percent Effect of the entry COc1ccccc1CN1C(=O)O[C@@H]2CN(c3nccs3)C[C@@H]21 .
Ans. 2.51

Qu. For the compound Cc1cccc(CN2CCc3ncnc(C)c3CC2)n1 , give its measured Percent Effect value.
Ans. 7.82

Qu. Please report the measured Percent Effect for CCn1nc(C)c(CCn2ccnc2-c2cc3n(n2)CCCNC3)c1C
Ans. 0.912

Qu. Identify measured Percent Effect corresponding to Cc1cc(NC(=O)NCCc2cccs2)n(C)n1
Ans. -7.64

Qu. Note down Percent Effect recorded for COc1cc(CN(C(=O)Nc2cccnc2OC)C2CC2)ccc1O
Ans. 11.9

Qu. Identify measured Percent Effect associated with CCc1nc2n(n1)CC(NCC(=O)Nc1cc(C)on1)CC2 (stereo unspecified)
Ans. 2.07

Qu. Provide one value: measured Percent Effect of Cc1nc(CN2CCOC(Cn3cncn3)C2)nc2ccccc12 (stereo unspecified)
Ans. 0.385

Qu. Provide Percent Effect value for the following compound: N#Cc1cnn(-c2ccc(C(=O)Nc3ccccn3)cc2)c1N
Ans. -10.6

Qu. Answer with the recorded Percent Effect for the compound listed here: CC(C)c1nnc2n1CCN(CC(=O)Nc1sccc1C#N)C2
Ans. -3.31

Qu. Please supply the value of reported Percent Effect for the item O=C(c1cccnc1N1CCOCC1)N1CCCC1Cn1cccn1 (stereo unspecified)
Ans. 8.78

Qu. Provide measured Percent Effect value, entry: COc1cccc([C@@H]2CN(C(=O)c3ccc(C)cc3O)C[C@H]2C(=O)O)c1
Ans. 25.8

Qu. Please supply the value of reported Percent Effect for the item COCCO[C@@H]1CCN(C(=O)c2ccc(C)o2)[C@@H]1Cc1cccnc1
Ans. -4.82

Qu. Return the recorded Percent Effect value; entry: CN(Cc1cccc(F)c1)C(=O)CN1CCCC1CCc1ccccc1 (stereo unspecified)
Ans. 4.42

Qu. Answer with the recorded Percent Effect of CCOCC(=O)NC1(c2cccc(Br)c2)CC1 only.
Ans. 9.79

Qu. Give the value of Percent Effect reported for the following: CSc1nccn1-c1cccc(C(=O)NCC2CC2)c1
Ans. 2.24

Qu. In one line, give reported Percent Effect of the entry COc1cccc(CNC(=O)CN2CCCCC2Cn2cccn2)c1 (stereo unspecified) .
Ans. 13

Qu. Report Percent Effect for CC(C)c1nccn1C1CCCN(C(=O)c2ccnc(N(C)C)c2)C1 (stereo unspecified)
Ans. -1.25

Qu. Check the records and state Percent Effect for COc1ccc(Br)c(C(=O)N2CCC(c3n[nH]c(C4CC4)n3)CC2)c1
Ans. 2.29

Qu. // fetch Percent Effect given entry Cc1cnnn1Cc1ncn2c1CN(Cc1cccs1)CCC2
Ans. -6.54

Qu. Return the recorded Percent Effect value; entry: CC(C)(C)c1n[nH]c(C2CN(C(=O)c3cc(Cl)c[nH]3)CCO2)n1 (stereo unspecified)
Ans. 10.4

Qu. Tell me Percent Effect reported for Fc1cccc(N2CCCC3(CN(Cc4ccncc4)CCO3)C2)c1 (stereo unspecified)
Ans. 2.73
